Just for reference, patent US11963959B2 is where these values come from.

For each entry below, report its log10(CC50) value.
# Protocol text: in vitro
# Test parameters: African green monkey
Please interpret these as log10 of CC50 where CC50 is in µM.

Measured log10(CC50) of Nc1nc(N)c2c(ccc3c2ccn3Cc2ccccc2C(F)(F)F)n1 : 0.30

Measured log10(CC50) of Cc1ccccc1Cn1ccc2c3c(N)nc(N)nc3ccc21 : 0.69

Measured log10(CC50) of Nc1nc(N)c2c(ccc3c2ccn3Cc2ccccc2F)n1 : 0.69

Measured log10(CC50) of Nc1nc(N)c2c(ccc3c2ccn3CC2CCCCC2)n1 : 0.69

Measured log10(CC50) of O=C(c1sc(-c2ccccc2)nc1-c1ccccc1)N1C[C@H]2CNC[C@H]2C1 : 1.90

Measured log10(CC50) of Cc1cc2c3c(N)nc(N)nc3ccc2n1Cc1ccc(C#N)cc1 : 0.81

Measured log10(CC50) of O=C(c1sc(-c2ccc(Cl)cc2)nc1-c1ccccc1)N1C[C@H]2CNC[C@H]2C1 : 1.04

Measured log10(CC50) of O=C(c1sc(-c2ccccc2)nc1-c1ccc(Cl)cc1)N1C[C@H]2CNC[C@H]2C1 : 1.23

Measured log10(CC50) of Nc1nc(N)c2c(ccc3c2ccn3Cc2ccccn2)n1 : 1.19

###

# Protocol text: PK studies in mice, subcutaneous twice-a-day dosing, plasma and lung
# Format: in vivo
# Test parameters: mouse, sc, lung, 25 mg/kg subcutaneous twice-a-day
For each entry below, report its Cmax value.
Please don't drop the unit; write it after the number.

Measured Cmax of Nc1nc(N)c2c(ccc3c2ccn3Cc2ccncc2)n1 : 2910 ng/mL

Measured Cmax of Nc1nc(N)c2c(ccc3c2ccn3Cc2ccccn2)n1 : 3270 ng/mL

Measured Cmax of Nc1nc(N)c2c(ccc3c2ccn3Cc2cccnc2)n1 : 3320 ng/mL

###

# Protocol text: PK studies in mice, subcutaneous twice-a-day dosing, plasma and lung
# Assay type: in vivo
# Test parameters: mouse, sc, lung, 10 mg/kg subcutaneous twice-a-day
Metric name: AUC

Measured AUC of Nc1nc(N)c2c(ccc3c2ccn3Cc2ccccc2F)n1 [Compound 8] : 13000 ng·h/mL

Measured AUC of Nc1nc(N)c2c(ccc3c2ccn3CC2CCCCC2)n1 [Compound 12] : 34100 ng·h/mL

###

# Protocol text: PK studies in mice, subcutaneous twice-a-day dosing, plasma and lung
# Format: in vivo
# Test parameters: mouse, sc, plasma, 25 mg/kg subcutaneous twice-a-day
For each entry below, report its Cmax value.
Reply with just the number (in ng/mL).

Measured Cmax of Nc1nc(N)c2c(ccc3c2ccn3Cc2ccncc2)n1 : 678

Measured Cmax of Nc1nc(N)c2c(ccc3c2ccn3Cc2cccnc2)n1 : 365

Measured Cmax of Nc1nc(N)c2c(ccc3c2ccn3Cc2ccccn2)n1 : 348

###

# Protocol text: PK studies in mice, subcutaneous twice-a-day dosing, plasma and lung
# Format: in vivo
# Test parameters: mouse, sc, plasma, 10 mg/kg subcutaneous twice-a-day
Metric name: half-life (min)
Reply with just the number (in min).

Measured half-life of Nc1nc(N)c2c(ccc3c2ccn3Cc2ccccc2F)n1 [Compound 8] : 186

Measured half-life of Nc1nc(N)c2c(ccc3c2ccn3CC2CCCCC2)n1 [Compound 12] : 252

###

# Protocol text: PK studies in mice, subcutaneous twice-a-day dosing, plasma and lung
# Format: in vivo
# Test parameters: mouse, sc, plasma, 10 mg/kg subcutaneous twice-a-day
Metric name: Cmax
Please don't drop the unit; write it after the number.

Measured Cmax of Nc1nc(N)c2c(ccc3c2ccn3CC2CCCCC2)n1 : 0.348 µg/mL

Measured Cmax of Nc1nc(N)c2c(ccc3c2ccn3Cc2ccccc2F)n1 : 0.675 µg/mL
